Overview of recorded pIC50 for various compounds
Tested system: NLRP3 (Homo sapiens, UniProt Q96P20)
Sequence (Q96P20 whole entry): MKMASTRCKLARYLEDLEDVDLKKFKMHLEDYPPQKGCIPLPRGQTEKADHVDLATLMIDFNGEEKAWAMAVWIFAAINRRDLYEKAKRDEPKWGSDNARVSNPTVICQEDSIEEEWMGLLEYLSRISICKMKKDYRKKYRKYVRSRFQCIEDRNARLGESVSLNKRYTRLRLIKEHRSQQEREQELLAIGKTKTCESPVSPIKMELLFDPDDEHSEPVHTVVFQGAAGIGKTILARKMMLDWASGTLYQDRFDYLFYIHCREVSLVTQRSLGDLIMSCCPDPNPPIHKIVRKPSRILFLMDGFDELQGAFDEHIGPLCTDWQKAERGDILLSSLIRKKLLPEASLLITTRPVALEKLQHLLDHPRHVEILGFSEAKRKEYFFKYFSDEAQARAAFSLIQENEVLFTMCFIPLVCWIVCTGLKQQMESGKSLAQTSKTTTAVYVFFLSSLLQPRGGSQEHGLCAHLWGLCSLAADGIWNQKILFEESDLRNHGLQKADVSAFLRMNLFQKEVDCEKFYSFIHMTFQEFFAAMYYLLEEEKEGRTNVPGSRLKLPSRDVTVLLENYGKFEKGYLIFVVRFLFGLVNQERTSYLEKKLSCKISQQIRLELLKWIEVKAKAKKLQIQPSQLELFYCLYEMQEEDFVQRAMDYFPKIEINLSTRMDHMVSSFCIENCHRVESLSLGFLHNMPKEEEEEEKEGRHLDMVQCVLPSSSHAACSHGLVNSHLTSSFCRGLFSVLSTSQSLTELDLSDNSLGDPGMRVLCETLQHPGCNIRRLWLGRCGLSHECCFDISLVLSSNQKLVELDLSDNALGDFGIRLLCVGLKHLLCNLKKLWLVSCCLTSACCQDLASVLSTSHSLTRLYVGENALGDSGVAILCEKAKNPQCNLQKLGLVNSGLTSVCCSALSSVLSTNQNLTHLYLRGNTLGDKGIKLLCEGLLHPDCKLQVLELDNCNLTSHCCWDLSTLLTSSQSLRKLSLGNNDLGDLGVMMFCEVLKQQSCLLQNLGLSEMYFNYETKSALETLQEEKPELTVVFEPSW
Experiment description: THP-1 cells pyroptosis assay (LPS + nigericin, resazurin readout; THP IC50)
Assay type: cell-based
Design: Seed THP-1 cells (25,000 cells/well) containing 1.0 μg/ml LPS in 40 μl of RPMI medium; host or cells: THP-1 cells
pIC50: −log10 of the molar value. Structures can show the parent of a compound that is named as a salt.

• CC(C)n1ccc(S(=O)(=O)NC(=O)Nc2c(-c3ccnc(OCCO)c3)ccc3c2CCC3)n1 = ≥ 6.30
• COc1cc(-c2ccc3ccncc3c2NC(=O)NS(=O)(=O)c2ccn(C(C)C)n2)ccn1 = ≥ 5.00
• CC(C)c1cc(F)cc(-c2cccc(C#N)c2)c1NC(=O)NS(=O)(=O)c1cc(CN(C)C)n(C(C)C)n1 = ≥ 6.00
• COc1cc(-c2cc(F)cc(C(C)C)c2NC(=O)NS(=O)(=O)CC(C)C)ccn1 = ≥ 6.00
• CCc1cc(-c2cc(F)cc(C(C)C)c2NC(=O)NS(=O)(=O)c2ccn(C(C)C)n2)ccn1 = ≥ 5.30
• COc1cc(-c2ccc3c(c2NC(=O)NS(=O)(=O)c2ccn(C(C)C)n2)CCC3)ccn1 = ≥ 6.30

Consider the record given below.
Tell me the measured pIC50 of COc1cc(-c2ccc3c(c2NC(=O)NS(=O)(=O)c2ccn(C(C)C)n2)CCO3)ccn1 [Example 224, sodium salt] , please.
≥ 6.30

###

Overview of recorded IC50 for various compounds
Tested system: NLRP3 (Homo sapiens)
Experiment description: THP-1 cells pyroptosis assay (LPS + nigericin, resazurin readout; THP IC50)
Type: cell-based
Parameters: Seed THP-1 cells (25,000 cells/well) containing 1.0 μg/ml LPS in 40 μl of RPMI medium; host or cells: THP-1 cells
Counter-ions that a name gives are not always drawn.

Examples from the recorded data:
- COc1cc(-c2ccc3c(c2NC(=O)NS(=O)(=O)c2ccn(C[C@@H](C)O)n2)CCC3)ccn1: ≤ 500 nM
- CN1CCC2CN(S(=O)(=O)NC(=O)Nc3c(-c4ccnc(C#N)c4)ccc4c3CCC4)CC21 (stereo not shown): ≤ 1000 nM
- COc1cc(-c2ccc3c(c2NC(=O)NS(=O)(=O)c2ccn(C4CCC4)n2)CCO3)ccn1 [Example 257, sodium salt]: ≤ 500 nM
- COc1cc(-c2ccc3c(c2NC(=O)NS(=O)(=O)c2ccn(C(C)(C)C)n2)CCO3)ccn1 [Example 259, sodium salt]: ≤ 500 nM
- COc1cc(-c2cc(F)c3c(c2NC(=O)NS(=O)(=O)N2C[C@H]4C[C@@H]2CN4C)CCC3)ccn1: ≤ 500 nM
- CC(C)c1cc(F)cc(-c2ccnc(N(C)C)c2)c1NC(=O)NS(=O)(=O)c1ccn(C(C)C)n1: ≤ 5000 nM

Consider the record given below.
Tell me the measured IC50 of Cc1cc(-c2cc(F)cc(C(C)C)c2NC(=O)NS(=O)(=O)c2ccn(C(C)C)n2)ccn1 [Example 13, ammonium salt] , please.
≤ 500 nM

###

Experiment description: PK protocol, intravenous administration
Format: in vivo, male Sprague Dawley rats
Assay setup: male, Sprague Dawley, plasma, dose 1 mg/kg, rat
Method: Pharmacokinetic parameters were determined in male Sprague Dawley rats (Charles River, UK, 250-350 g; or Vital River Laboratory Animal Technology Co Ltd, Beijing, China, 7-9 weeks old). Animals were individually housed during the study and maintained under a 12 h light/dark cycle. Animals had free access to food and water. For intravenous administration, compounds were formulated as a solution in water or DMSO:PBS [10:90] in 2 mL/kg dosing volume and administered via tail vein. […]
Structures can show the parent of a compound that is named as a salt.
Outcome measure: AUC (ng·h/mL)

(P) CC(C)c1cc(F)cc(-c2cccnc2)c1NC(=O)NS(=O)(=O)c1ccn(C[C@@H](C)O)n1
(Q) CC(C)n1cc(S(=O)(=O)NC(=O)Nc2c(-c3ccnc(C#N)c3)ccc3c2CCC3)nn1 [Example 230, sodium salt]
(R) CC#Cc1cc(-c2cc(F)cc(C(C)C)c2NC(=O)NS(=O)(=O)c2ccn(C(C)C)n2)ccn1
(S) CC(C)c1cc(F)cc(-c2ccnc(C#N)c2)c1NC(=O)NS(=O)(=O)c1cn(C(C)C)cn1
(T) CC(C)n1ccc(S(=O)(=O)NC(=O)Nc2c(-c3ccncc3)cc(F)c3c2CCC3)n1
Order the records by AUC, with each subsequent value no larger than the one before. Output spec: labels arranged per the requested ranking.
T, Q, R, P, S

(a) COc1cc(-c2cc(F)cc(C(C)C)c2NC(=O)NS(=O)(=O)c2cc(CN(C)C)n(C)n2)ccn1
(b) COc1cc(-c2ccc3c(c2NC(=O)NS(=O)(=O)c2ccc(CN(C)C)cc2)CCC3)ccn1 [Example 251, sodium salt]
Choose between a and b : whose measured AUC value is numerically larger? Selection: enter the item's label.
b

###

Tested system: NLRP3 (Homo sapiens, UniProt Q96P20)
Experiment description: Human whole blood IL1β release assay (LPS + nigericin, AlphaLisa IL-1β; HWB IC50)
Assay type: cell-based
Set-up: Human whole blood in Li-heparin tubes was obtained from healthy donors from a volunteer donor panel; from tissue; host or cells: human whole blood from healthy donors
Assay setup: IL-1β release
Outcome measure: IC50

Examples from the recorded data:
- COc1cc(-c2ccc3c(c2NC(=O)NS(=O)(=O)c2ccn(CCN(C)C)n2)CCC3)ccn1: ≤ 500 nM
- CC(C)c1cc(F)cc(-c2ccccc2)c1NC(=O)NS(=O)(=O)c1cc(CN(C)C)n(C)n1: ≤ 1000 nM
- CC(C)c1cc(F)cc(-c2ccnc(O)c2)c1NC(=O)NS(=O)(=O)c1ccn(C(C)C)n1: ≤ 500 nM

Tell me the measured IC50 of `COc1cc(-c2ccc3ccccc3c2NC(=O)NS(=O)(=O)c2ccn(C(C)C)n2)ccn1` , please.
≤ 5000 nM

###

Tested system: UniProt Q96P20
Experiment description: THP-1 cells pyroptosis assay (LPS + nigericin, resazurin readout; THP IC50)
Type: cell-based
Design: Seed THP-1 cells (25,000 cells/well) containing 1.0 μg/ml LPS in 40 μl of RPMI medium; host or cells: THP-1 cells
Overview of recorded IC50 for various compounds

* COc1cc(-c2ccc3c(c2NC(=O)NS(=O)(=O)N(C)CC2CCCN2C)CCC3)ccn1 (stereo not shown) | ≤ 0.5 µM
* CC(C)c1cc(F)cc(-c2ccccc2)c1NC(=O)NS(=O)(=O)c1ccn(C(C)C)n1 | ≤ 5 µM

Tell me the measured IC50 of `CCn1nc(S(=O)(=O)NC(=O)Nc2c(-c3cccc(OC)c3)ccc3c2CCC3)cc1CN(C)C` , please.
≤ 1 µM

Now the same for CC(C)c1cc(F)cc(-c2ccnc(C#N)c2)c1NC(=O)NS(=O)(=O)N1CC2CCN(C)C2C1 (stereo not shown)
≤ 10 µM

###

Tested system: NLRP3 (Homo sapiens, UniProt Q96P20)
Experiment description: THP-1 cells pyroptosis assay (LPS + nigericin, resazurin readout; THP IC50)
Type: cell-based
Design: Seed THP-1 cells (25,000 cells/well) containing 1.0 μg/ml LPS in 40 μl of RPMI medium; host or cells: THP-1 cells
Structures can show the parent of a compound that is named as a salt.
Outcome measure: IC50

Tell me the measured IC50 of CC(C)n1ccc(S(=O)(=O)NC(=O)Nc2c(-c3ccnnc3)ccc3c2CCC3)n1 [Example 223, sodium salt] , please.
≤ 0.5 µM

Now the same for CC(C)c1cc(F)cc(-c2cncnc2)c1NC(=O)NS(=O)(=O)c1cc(CN(C)C)n(C(C)C)n1 [Example 43]
≤ 5 µM

Now the same for CC(C)c1cc(F)cc(-c2cnoc2)c1NC(=O)NS(=O)(=O)c1ccn(C(C)C)n1 [Example 7]
≤ 5 µM

Now the same for CC(C)c1cc(F)cc(-c2ccnn2C)c1NC(=O)NS(=O)(=O)c1ccn(C(C)C)n1 [Example 5]
≤ 5 µM

Now the same for CNc1cc(-c2ccc3c(c2NC(=O)NS(=O)(=O)c2ccn(C4CC4)n2)CCC3)ccn1 [Example 253]
≤ 1 µM

###

Experiment description: PK protocol, intravenous administration
Format: in vivo, male Sprague Dawley rats
Assay setup: male, Sprague Dawley, plasma, dose 1.98 mg/kg, rat
Counter-ions that a name gives are not always drawn.
Outcome measure: clearance (mL/min/kg)
Entry rule: numbers only, all in mL/min/kg.

Tell me the measured clearance of CC(C)c1cc(F)cc(-c2ccncc2)c1NC(=O)NS(=O)(=O)c1ccn(C(C)C)n1 [Example 10, ammonium salt] , please.
40.9

###

Tested system: NLRP3 (Homo sapiens, UniProt Q96P20)
Experiment description: THP-1 cells pyroptosis assay (LPS + nigericin, resazurin readout; THP IC50)
Type: cell-based
Design: Seed THP-1 cells (25,000 cells/well) containing 1.0 μg/ml LPS in 40 μl of RPMI medium; host or cells: THP-1 cells
Method: THP-1 cells (ATCC #TIB-202) were grown in RPMI containing L-glutamine (Gibco #11835) supplemented with 1 mM sodium pyruvate (Sigma #S8636) and penicillin (100 units/ml)/streptomycin (0.1 mg/ml) (Sigma #P4333) in 10% Fetal Bovine Serum (FBS) (Sigma #F0804). […] The cells were then counted and viability (>90%) checked by Trypan blue (Sigma #T8154). […] The following method step-by-step assay was followed for compound screening. • 1. […] Plates were read in an Envision reader at Ex 560 nm and Em 590 nm • 9. […]
Counter-ions that a name gives are not always drawn.
Overview of recorded IC50 for various compounds

Examples from the recorded data:
• COc1cc(-c2cc(F)cc(C(C)C)c2NC(=O)NS(=O)(=O)c2ccn(C(C)C)n2)ccn1 [Example 12, ammonium salt] = ≤ 500 nM
• CN(C)c1cnnc(S(=O)(=O)NC(=O)Nc2c(-c3ccncc3)cc(F)c3c2CCC3)c1 [Example 121] = ≤ 500 nM

Tell me the measured IC50 of CC(C)c1cc(F)cc(-c2cccnc2)c1NC(=O)NS(=O)(=O)c1cc(CN(C)C)n(C(C)C)n1 [Example 41] , please.
≤ 500 nM

Now the same for CCN(CCCS(=O)(=O)NC(=O)Nc1c(-c2ccnc(C#N)c2)cc(F)cc1C(C)C)Cc1ccccc1 [Example 151]
≤ 5000 nM

# credit: patent US20200361895A1
